Values were extracted from ChEMBL document CHEMBL1148870.

- Species on record: Homo sapiens
- measurementProtocol: Inhibition of InR at 10 uM
- Set-up: scale not given: the % may be the effect or the level left
reportedMetric: Activity

Past entries and their recorded results:
{"chemicalString": "O=C(Nc1ccc(C(F)(F)F)c(Cl)c1)c1nnnn1CCc1ccncc1", "Activity": "> 30%"}
{"chemicalString": "O=C(Nc1ccc(Cl)cc1)c1ccnn1CCc1ccc(F)c(F)c1", "Activity": "> 30%"}

Q: Need Activity, item "O=C(Nc1ccc(Cl)cc1)c1ccnn1CCc1cnoc1"
A: > 30%

Q: Another compound to look at: "O=C(Nc1cccc(OC(F)(F)F)c1)c1ccnn1CCc1ccncc1"
A: > 30%

Q: Another compound to look at: "O=C(Nc1ccc(Cl)cc1)c1nccn1CCc1ccncc1"
A: > 30%

Q: Another compound to look at: "O=C(Nc1ccc(Cl)cc1)c1ccnn1CCc1ccccn1"
A: > 30%

Q: Another compound to look at: "O=C(Nc1ccc(OC(F)(F)F)cc1)c1nc2ccccc2n1CCc1ccncc1"
A: > 30%

Q: Another compound to look at: "O=C(Nc1ccc(Cl)cc1)c1ccnn1CCc1c[nH]cn1"
A: > 30%

Q: Another compound to look at: "COc1ccc(CCn2nccc2C(=O)Nc2ccc(Cl)cc2)cc1OC"
A: > 30%

Q: Another compound to look at: "Cc1nn(CCc2ccncc2)c(C(=O)Nc2ccc(OC(F)(F)F)cc2)c1C"
A: > 30%

Q: Another compound to look at: "O=C(Nc1ccc(-c2ccccc2)cc1)c1ccnn1CCc1ccncc1"
A: > 30%
